# credit: ChEMBL document CHEMBL1150262

Parameter pIC50, tested on UniProt:P30872, listed per item.
Sequence (P30872 whole entry): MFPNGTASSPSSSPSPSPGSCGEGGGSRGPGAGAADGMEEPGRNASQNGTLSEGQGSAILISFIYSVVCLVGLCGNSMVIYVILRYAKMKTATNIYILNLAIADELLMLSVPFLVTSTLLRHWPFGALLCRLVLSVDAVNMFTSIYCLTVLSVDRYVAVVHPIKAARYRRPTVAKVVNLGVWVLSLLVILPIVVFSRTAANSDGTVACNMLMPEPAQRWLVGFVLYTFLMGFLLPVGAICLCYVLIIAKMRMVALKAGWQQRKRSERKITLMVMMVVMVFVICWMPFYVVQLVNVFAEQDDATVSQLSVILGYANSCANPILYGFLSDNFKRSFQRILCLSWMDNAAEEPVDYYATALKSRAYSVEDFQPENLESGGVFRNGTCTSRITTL
Answers are plain numbers, as −log10 of the molar value.

INSERT INTO assay_data (input_smiles, value) VALUES
  ('CC(=O)N[C@@H]1SS[C@H](C(=O)O)NC(=O)[C@H](Cc2ccccc2)NC(=O)[C@H]([C@@H](C)O)NC(=O)[C@H](CCCCN)NC(=O)[C@@H](Cc2c[nH]c3ccccc23)NC(=O)[C@H](Cc2ccccc2)NC(=O)[C@H](Cc2ccccc2)NC1=O', 6.52);

Here's the next entry for you.
Lab note: measured pIC50 of CC(=O)N[C@H]1SSC[C@@H](C(=O)O)NC(=O)[C@H](Cc2ccccc2)NC(=O)[C@H]([C@@H](C)O)NC(=O)[C@H](CCCCN)NC(=O)[C@@H](Cc2c[nH]c3ccccc23)NC(=O)[C@H](Cc2ccccc2)NC(=O)[C@H](Cc2ccccc2)NC1=O was 6.38
